experiment: NCI Yeast Anticancer Drug Screen. Data for the sgs1 strain (AID 173);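 further: 0% = growth of vehicle-only control cultures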; conditions: S. cerevisiae sgs1 mutant, at 1.2 µM, active compounds read high
This is part of a sample that, as a whole, favours compounds with a hit. Of some 79,000 tested, about 15% had one in any assay.
METRIC: growth inhibition (%)
Record the value in %, omitting the unit from your answer.

Use the examples below as a reference point.
Cc1cc(CO)c(O)c(CNCc2cc(C)cc(CO)c2O)c1; 3
O=Nc1c(NO)ccc2nn(-c3ccccc3)nc12; 61
CC(=O)Nc1ccc(/C=C(\C#N)c2ccc(C)cc2)cc1; -21

Shifting focus to the compound that follows.
Form field: reported growth inhibition of C/C(=N\NC(=S)N1CCCCC1)c1cccc(C)n1
9

###

assay: NCI Yeast Anticancer Drug Screen. Data for the sgs1 strain (AID 173);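 further: 0% = growth of vehicle-only control cultures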; details: S. cerevisiae sgs1 mutant, at 11.0 µM, active compounds read high
Compounds without any hit were thinned out: in the full panel of roughly 79,000, 15% have a hit.
METRIC: growth inhibition (%)
Record the value in %, omitting the unit from your answer.

Cc1ccc(CCC2=CCCc3c2ccc2ccccc32)cc1; -1
CCN(CC)[P+](c1ccccc1O)(N(CC)CC)N(CC)CC; -25
CCCCCCCCCCC(=O)Cl; 15
O=C(OCC=C1CCCC1)c1cc([N+](=O)[O-])cc([N+](=O)[O-])c1; 26
CN(C)c1ccc(C(C#N)=C(C#N)C#N)cc1; -3

Form field: reported growth inhibition of BrCc1cccc2ccc3cccc(CBr)c3c12
-4

Try Cc1[nH]c2ccccc2c1C(c1ccc(N)cc1)c1c(C)[nH]c2ccccc12 next.
-19

Try COc1cc2c(cc1[N+](=O)[O-])C(=O)C(Br)(Br)CCC2 next.
83

Try CC(C)/C(Cl)=N\OC(=O)Nc1ccc(F)cc1 next.
13

Try Cc1c(C(Cc2ccccc2N(C)C(=O)/C=C\C(=O)O)c2c[nH]c3ccccc23)c2ccccc2n1C (stereo not drawn) next.
-3

Try CC(=O)OC1CCC2(C)C(=CCC3C4CCC5(OC6CC(C)CN(C(C)=O)C6C5C)C(C)=C4C(=O)C32)C1 (stereo not drawn) next.
54

Try CNC(=O)OCc1c(COC(=O)NC)c(-c2ccc(Cl)c(Cl)c2)n2c1CCC2 next.
-29

Try CCOC(=O)c1cnc2cc(C(F)(F)F)ccc2c1N=[N+]=[N-] next.
25

Try COc1cc(C2SCC(=O)N2c2ccc(-c3ccc(-n4c(-c5ccccc5)nc5ccccc5c4=O)cc3)cc2)cc(OC)c1OC (stereo not drawn) next.
2

Try O=C(O)C1OC1(c1cccc(Cl)c1)c1ccccc1Cl (stereo not drawn) next.
1

Try OC(c1ccc(F)cc1)(c1ccc(F)cc1)C1CC1 next.
-52

Try COc1ccc(O)c(/C=N\Nc2ccccc2)c1 next.
11

###

assay: NCI Yeast Anticancer Drug Screen. Data for the rad50 strain (AID 155);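 further: 0% = growth of vehicle-only cultures of the same strain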; settings: S. cerevisiae rad50 strain growth inhibition; at 5.0 µM (retest, dose inferred, filed as 0.5); active compounds read high
Compounds without any hit were thinned out: in the full panel of roughly 79,000, 15% have a hit.
Items are presented alongside their recorded growth inhibition.
Record the value in %, omitting the unit from your answer.

Use the examples below as a reference point.
CC1CCN(CCC(=O)c2ccc(Cl)cc2)CC1; 5
COc1cc(C2c3cc4c(cc3OC(Nc3ccccc3)C2C)OCO4)cc(OC)c1O (stereo not drawn); -3
CCCCCCCC1(N=[N+]=[N-])C(=O)c2ccccc2N(C)C1=O (stereo not drawn); -4

Shifting focus to the compound that follows.
Form field: reported growth inhibition of O=C1c2cc([N+](=O)[O-])ccc2-c2cccc(F)c21
7

###

Items are presented alongside their recorded growth inhibition.
test: NCI Yeast Anticancer Drug Screen. Data for the mec2-1 strain (AID 157); conditions: S. cerevisiae mec2-1 strain, at 50.0 µM (retest, dose inferred, filed as 5.0), active compounds read high
This is part of a sample that, as a whole, favours compounds with a hit. Of some 79,000 tested, about 15% had one in any assay.
Record the value in %, omitting the unit from your answer.

Form field: reported growth inhibition of Cc1ccc(S(=O)(=O)NC(=O)NC2=NC(C)(C)N(c3ccc(Cl)c(Cl)c3)C(N)=N2)cc1
-3

###

Items are presented alongside their recorded growth inhibition.
assay: NCI Yeast Anticancer Drug Screen. Data for the cln2 rad14 strain (AID 165);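 further: 0% = growth equal to vehicle treated cultures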; conditions: S. cerevisiae cln2 rad14 strain, at 50.0 µM (retest, dose inferred, filed as 5.0), active compounds read high
The panel holds about 79,000 compounds, 15% with a hit somewhere; the sample as a whole holds those more often.
Record the value in %, omitting the unit from your answer.

O=C1OC(=O)C2CCCC3CCCC1C32 (stereo not drawn); 98
CCC(=O)c1cccc2ccccc12; 18

Form field: reported growth inhibition of O=C(NCCCCNCCCNC(=O)c1cc(-c2ccccc2)nc2ccccc12)c1cc(-c2ccccc2)nc2ccccc12
55

###

experiment: NCI Yeast Anticancer Drug Screen. Data for the sgs1 mgt1 strain (AID 161);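 further: 0% = growth of cultures given vehicle only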; details: S. cerevisiae sgs1 mgt1 strain, at 50.0 µM
The panel holds about 79,000 compounds, 15% with a hit somewhere; the sample as a whole holds those more often. Active and inactive are the calls of the source. Cut-off read from the data, not from the text of the source: active = growth inhibition above about 70%; inactive = the rest.
// one of y = active, n = inactive, no free text

Entry NNC(=O)CCc1ccc2ccc3ccccc3c2c1 : call = ?
n

Try CCN(CC)CCNc1ccc([N+](=O)[O-])c2nc3ccc(OC)cc3c(N)c12 next.
n

Try COc1cc(C(=O)/C=C/c2ccccc2O)ccc1O next.
y

Try O=[N+]([O-])c1ccc(=S)[nH]c1 next.
y

Try Oc1ccc2ccccc2c1C(c1ccc(Cl)cc1)c1c(O)ccc2ccccc12 next.
n

Try CC(C)C1=CCC2C(=C1)CCC1C(C)(C(=O)O)CCCC21C (stereo not drawn) (tested in a mixture with another compound) next.
y

Try Cc1[nH]c2ccccc2c1C(c1ccc(N)cc1)c1c(C)[nH]c2ccccc12 next.
y

Try O=[N+]([O-])c1cccc([N+](=O)[O-])c1S(=O)(=O)c1ccccc1 next.
n

###

assay: NCI Yeast Anticancer Drug Screen. Data for the rad14 strain (AID 159);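 further: 0% = growth of vehicle-treated control cultures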; details: S. cerevisiae rad14 strain growth inhibition; at 33.0 µM; active compounds read high
Compounds without any hit were thinned out: in the full panel of roughly 79,000, 15% have a hit. The source made the active and inactive calls. Rule as the data show it: active = growth inhibition above about 70%; inactive = the rest.
METRIC: growth inhibition

Use the examples below as a reference point.
CC1=NN(c2cccc(Cl)c2)C(=O)C1; 3% (inactive)
O=C1C2C(C(=O)N1c1ccc(OCc3ccccc3)cc1)C1c3ccccc3C2C2CCCCN21 (stereo not drawn); 35% (inactive)

Form field: reported growth inhibition of CCCCCCCCCCCCCCC(C(=O)[O-])[n+]1ccccc1 (stereo not drawn)
2% (inactive)

###

experiment: NCI Yeast Anticancer Drug Screen. Data for the mec2-1 strain (AID 157); conditions: S. cerevisiae mec2-1 strain, at 3.7 µM, active compounds read high
The panel holds about 79,000 compounds, 15% with a hit somewhere; the sample as a whole holds those more often. The source made the active and inactive calls. Rule as the data show it: active = growth inhibition above about 70%; inactive = the rest.
Items are presented alongside their recorded growth inhibition.

Form field: reported growth inhibition of O=C1C(Nc2ccccc2)=C(Oc2ccccc2)C(=O)c2ccccc21
1% (inactive)

Try OCC1OC(OCC(O)C(O)C(O)C(/C=N/Nc2ccccc2)=N/Nc2ccccc2)C(O)C(O)C1O (centres undefined) next.
16% (inactive)

Try Cc1c(C(Cc2ccccc2N(C)C(=O)/C=C\C(=O)O)c2c[nH]c3ccccc23)c2ccccc2n1C (centres undefined) next.
-4% (inactive)

Try CCOC(=O)c1cc(-c2ccc(Cl)cc2)c([N+](=O)[O-])n1C next.
23% (inactive)

###

test: NCI Yeast Anticancer Drug Screen. Data for the rad50EPP+ strain (AID 151);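 further: 0% = growth of vehicle-treated control cultures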; conditions: S. cerevisiae rad50 mutant strain, at 100.0 µM, active compounds read high
This is part of a sample that, as a whole, favours compounds with a hit. Of some 79,000 tested, about 15% had one in any assay.
Items are presented alongside their recorded growth inhibition.
Record the value in %, omitting the unit from your answer.

Use the examples below as a reference point.
Cc1ccc2ccc(O)cc2c1; 46
CCC/C(Cl)=N\OC(=O)Nc1ccc(Br)cc1; 81
COc1cc(C2SCC(=O)N2c2nnc(C(F)(F)F)s2)cc(OC)c1OC (configuration not stated); 0
C=CCC1=C(C)C(OC(=O)/C=C/c2ccccc2)CC1=O (configuration not stated); 15
COC(=O)C1=C(C(=O)OC)C2(C)C=CC1O2 (configuration not stated); 19
[N-]=N[N+]#I1OC(C(F)(F)F)(C(F)(F)F)c2ccccc21; 99
C#CCCCc1ccccc1; 67
BrCC[P+](c1ccccc1)(c1ccccc1)c1ccccc1; 95

Form field: reported growth inhibition of C[CH2][Sn]([CH2]C)([O]C(=O)C(OC(C)=O)c1ccccc1)[O]C(=O)C(OC(C)=O)c1ccccc1 (configuration not stated)
9

###

experiment: NCI Yeast Anticancer Drug Screen. Data for the rad18 strain (AID 177); conditions: S. cerevisiae rad18 mutant growth inhibition; at 11.0 µM; active compounds read high
The panel holds about 79,000 compounds, 15% with a hit somewhere; the sample as a whole holds those more often.
METRIC: growth inhibition (%)
Record the value in %, omitting the unit from your answer.

Use the examples below as a reference point.
O=C1c2ccccc2C(=O)c2c(NC3CCCCC3)ccc(Nc3ccc(S(=O)(=O)O)cc3)c21; -1
CC(=O)OCC(=O)C1(O)CCC2C3CCC4CCCCC4(C)C3CCC21C (stereo not given); 32
CC(=O)SCCC[Si](C)(C)CCCSC(C)=O; 3
CCCCc1cc(O)ccc1O; 15
Cc1cccc2c(C(O)CBr)cc(-c3ccc(Cl)cc3)nc12 (stereo not given); 98
Cc1nc(-[n+]2nc(-c3ccncc3)nn2-c2ccccc2)sc1C; 7

Form field: reported growth inhibition of O=C(OCC=C1CCCC1)c1cc([N+](=O)[O-])cc([N+](=O)[O-])c1
21

Try Cc1c(C2=C(Br)C(=O)N(C)C2=O)c(=O)n(C)c(=O)n1C next.
75

Try N#Cc1ccc(C2NN=CC23C(=O)c2ccccc2OC3c2ccccc2)cc1 (stereo not given) next.
-3

Try CC(C)/C(Cl)=N\OC(=O)Nc1ccccc1F next.
17
